From: patent US4904764A

- Method description: Photolability (half-life)
- Assay type: physicochemical
- Measurement setup: exposure to light; read-out: photolabile, half-life
Property label: half-life

[ask] Need half-life, item COC1=CC(=O)C=CC1=[N+]=[N-]
[reply] < 2 h
